The measurements presented in this section are drawn from PubChem BioAssay AID588689.

# targetUnderTest: Genome polyprotein (Dengue virus type 2 (strain 16681-PDK53)) (UniProt P29991)
# measurementProtocol: flavivirus cap methylation enzyme inhibition – biochemical, confirmation dose response, primary screen (AID 588689)
# testContext: Dengue-2 NS5 methyltransferase capping enzyme assay, at 25 µM, stronger effect = higher value
About 1,000 (0.29%) of roughly 340,000 compounds were called active. Only a sample is shown. Measured potencies and affinities stand elsewhere.
valueType: inhibition (%)
Answers are plain numbers, in %.

{"compound": "Nn1c(COc2ccccc2F)nnc1SCC(=O)NC1CCCC1", "reportedResult": -8.38}
{"compound": "CCCOC(=O)CSC1=C(C#N)C(c2ccccc2OC)C(C#N)C(=O)N1 (stereo unspecified)", "reportedResult": -15.9}
{"compound": "CC(C)CCn1c(SCC(=O)Nc2ccccc2C(F)(F)F)nc2nccnc2c1=O", "reportedResult": -2.66}
{"compound": "O=C(O)c1ccc(NC(=O)c2cccc(C(=O)Nc3ccc(C(=O)O)cc3)n2)cc1", "reportedResult": -1.63}
{"compound": "CCC1CCCCN1S(=O)(=O)c1ccc2c(c1)CCN2C(C)=O (stereo unspecified)", "reportedResult": -10.9}
{"compound": "CN(Cc1cnn(-c2ccc(F)cc2)c1)Cc1nc(Cc2ccccc2)no1", "reportedResult": -8.38}

# map each compound to its inhibition
1. Cc1nc2ccc(Br)cc2c(-c2ccccc2)c1C(=O)O
2. O=C1N/C(=C/c2cccn2-c2ccc(F)cc2)C(=O)N1Cc1ccccc1
3. CCN(CC)S(=O)(=O)c1cccc(NC(=O)COC(=O)/C=C/c2cccs2)c1
4. Cc1cccc(OCCn2nc(C(=O)O)c3ccccc3c2=O)c1
5. CC(Oc1ccccc1)C(=O)N=C1SC2CS(=O)(=O)CC2N1Cc1ccccc1 (stereo unspecified)

Solution:
1. 1.96
2. -0.68
3. -2.65
4. 2.68
5. 0

* * *

# targetUnderTest: Genome polyprotein (Dengue virus type 2 (strain 16681-PDK53)) (UniProt P29991)
# measurementProtocol: flavivirus cap methylation enzyme inhibition – biochemical, confirmation dose response, primary screen (AID 588689)
# testContext: Dengue-2 NS5 methyltransferase capping enzyme assay, at 25 µM, stronger effect = higher value
In all, about 340,000 compounds went through this assay and about 1,000 (0.29%) were called active. The list is a sample of the results. Measured potencies and affinities stand elsewhere.
valueType: inhibition (%)
One number for each entry, in %.

Here are 8 compounds. What values of inhibition were reported for them?
1. COc1ccc(S(=O)(=O)/N=C2/NC(=O)/C(=C\c3cc(OC)c(OC)cc3[N+](=O)[O-])S2)cc1
2. COc1ccc(NC(=O)Cc2ccc(Cl)cc2Cl)cn1
3. CCCC(c1nnnn1C(C)(C)CC)N1CCN(C(=O)c2ccco2)CC1 (configuration not stated)
4. COC(=O)c1ccccc1NC(=O)CSc1nccn1C
5. C=CCC[C@@H](Cc1ccc(F)cc1)C(=O)OC[C@@H](Cc1ccccc1)NC(=O)[C@@H](CC=C)CC(=O)N[C@@H](CO)Cc1ccccc1
6. Cc1cc(NS(=O)(=O)c2ccccc2)c([N+](=O)[O-])cc1C
7. Cc1cccc(NC(=O)Nc2cnccn2)c1
8. COc1ccc([N+](=O)[O-])cc1NS(=O)(=O)c1ccccc1

Solution:
[2.45, -4.71, 3.16, 0.56, -4.81, 4.34, -2.65, 5.1]

* * *

# targetUnderTest: Genome polyprotein (Dengue virus type 2 (strain 16681-PDK53))
# measurementProtocol: flavivirus cap methylation enzyme inhibition – biochemical, confirmation dose response, primary screen (AID 588689)
# testContext: Dengue-2 NS5 methyltransferase capping enzyme assay, at 25 µM, stronger effect = higher value
In all, about 340,000 compounds went through this assay and about 1,000 (0.29%) were called active. Only a sample is shown. Results with a measured potency or affinity are listed apart.
For each of the compounds below, state its inhibition.
Give bare numbers, in %.

A selection of reference data follows.
{"smilesRepr": "COCCn1c(C)nnc1SCC(=O)NNC(=O)c1ccc(Br)cc1", "unitsSymbol": "%", "reportedResult": -3.23}
{"smilesRepr": "O=C(CSc1nnc(-c2ccco2)c(-c2ccco2)n1)c1ccccc1", "unitsSymbol": "%", "reportedResult": 29.5}

Consider the following items and state reported inhibition for each.
1. Cc1ccc(NC(=O)CSc2nnc(-c3ccco3)c(-c3ccco3)n2)cc1
2. COc1ccccc1NC(=O)Nc1ccccc1C(N)=O
3. COc1ccccc1N1CCN(CCNC(=O)Nc2cccc(C)c2C)CC1
4. Cc1ccccc1NC(=O)CSc1n[nH]c(-c2ccco2)n1

Solution:
1: 14.3; 2: -5.31; 3: -5.61; 4: 0.76

* * *

For each of the molecules below, state its inhibition.
# targetUnderTest: Genome polyprotein (Dengue virus type 2 (strain 16681-PDK53)) (UniProt P29991)
# measurementProtocol: flavivirus cap methylation enzyme inhibition – biochemical, confirmation dose response, primary screen (AID 588689)
# testContext: Dengue-2 NS5 methyltransferase capping enzyme assay, measured here: pilot screen replicate inhibition, at 25 µM, stronger effect = higher value
The campaign covered roughly 340,000 compounds. About 1,000 (0.29%) were called active. Not all results are given here. Potency and affinity values are given separately.
Answers are plain numbers, in %.

Recorded results for 5 molecules are shown here.
{"molecule": "CC(C)C(O)P(=O)(OCc1ccccc1)c1ccc(N(C)C)cc1 (stereo unspecified)", "inhibition [%]": -3.66}
{"molecule": "COc1ccc(N2CCN(C(=O)CC3NC4CCCCC4NC3=O)CC2)cc1 (stereo unspecified)", "inhibition [%]": -0.61}
{"molecule": "COc1ccc2cc(C3(C)NC(=O)N(CC(=O)NCCC4=CCCCC4)C3=O)ccc2c1 (stereo unspecified)", "inhibition [%]": -2.13}
{"molecule": "COc1ccccc1OCCCOc1cccc(/C=C2\\SC(=O)NC2=O)c1", "inhibition [%]": 6.37}
{"molecule": "COc1ccc(NC(=O)CN2CCN(S(=O)(=O)N(C)C)CC2)cc1", "inhibition [%]": 3.63}

// batch mode: one inhibition value per listed entry
1. Clc1ccc(CN2CCSCC2)c(Cl)c1
2. CCn1c(SCc2nc3ccccc3c(=O)[nH]2)nnc1-c1ccncc1
3. CC1(C)CC(=O)C(C(C2=C(O)CC(C)(C)CC2=O)c2cccc(O)c2)C(=O)C1 (stereo unspecified)

Solution:
[2.1, -0.31, -19.3]

// for each molecule below, give its inhibition
1. CC1(C)CC(=O)C(C(c2ccco2)C2C(=O)CC(C)(C)CC2=O)C(=O)C1
2. CC1(C)CC[C@]2(C(=O)O[C@@H]3OC(CO)[C@@H](O)[C@H](O)[C@H]3O)CC[C@]3(C)C(=CCC4[C@@]5(C)CC[C@H](O[C@@H]6OC(C(=O)O)[C@@H](O)[C@H](O)[C@H]6O)C(C)(C)C5CC[C@]43C)[C@@H]2C1 (stereo partly specified)

Solution:
17.1
2.42

* * *

Please respond with reported inhibition for every item in the list.
# targetUnderTest: Genome polyprotein (Dengue virus type 2 (strain 16681-PDK53)) (UniProt P29991)
# measurementProtocol: flavivirus cap methylation enzyme inhibition – biochemical, confirmation dose response, primary screen (AID 588689)
# testContext: Dengue-2 NS5 methyltransferase capping enzyme assay, at 25 µM, stronger effect = higher value
Among all 340,000 compounds or so, about 1,000 (0.29%) were called active. Only a sample is shown. Measured potencies and affinities stand elsewhere.
Give bare numbers, in %.

{"smilesRepr": "O=C1NN(c2ccccc2)C(=O)/C1=C\\c1ccc(-c2cc([N+](=O)[O-])ccc2O)o1", "inhibition [%]": -10.2}
{"smilesRepr": "O=C1NN(c2ccccc2)C(=O)/C1=C/c1ccc(Sc2cccc3ccccc23)o1", "inhibition [%]": -6.2}
{"smilesRepr": "O=C1NN(c2ccccc2)C(=O)/C1=C/c1ccc(Sc2ccc(Cl)cc2)o1", "inhibition [%]": 29.5}

Parameter requested: inhibition. Apply to each item below.
1. COc1ccc(NC(=O)CN2C(=O)/C(=C3\SC(=S)N(CCC(=O)O)C3=O)c3ccccc32)cc1
2. CC(=O)N1C(=S)NC(=O)/C1=C1/C(=O)N(CC(=O)Nc2cccc(C)c2)c2ccccc21

Solution:
[2.68, -2.91]

* * *

Assign inhibition to each entry below.
# targetUnderTest: Genome polyprotein (Dengue virus type 2 (strain 16681-PDK53))
# measurementProtocol: flavivirus cap methylation enzyme inhibition – biochemical, confirmation dose response, primary screen (AID 588689)
# testContext: Dengue-2 NS5 methyltransferase capping enzyme assay, measured here: pilot screen replicate inhibition, at 25 µM, stronger effect = higher value
Out of some 340,000 compounds screened, about 1,000 (0.29%) were called active. Not all results are given here. Results with a measured potency or affinity are listed apart.
Numbers only, in %.

Previously resolved entries follow.
{"compound": "COc1ccc2[nH]c3c(c2c1)CCN1C(=O)C(CC(=O)NC(C)(C)C)C[C@H](C(=O)N(C(C)C)C(C)C)[C@@]31C (some centres undefined)", "targetUnderTest": "Genome polyprotein (Dengue virus type 2 (strain 16681-PDK53))", "valueType": "inhibition", "reportedResult": -4.89}
{"compound": "COc1cc(C2CC(=O)Oc3cc(O)ccc32)cc(OC)c1OC (centres undefined)", "targetUnderTest": "Genome polyprotein (Dengue virus type 2 (strain 16681-PDK53))", "valueType": "inhibition", "reportedResult": 3.63}
{"compound": "Cc1ccnc(N2CCC(C(=O)Nc3ccc4c(c3)CCC4)CC2)n1", "targetUnderTest": "Genome polyprotein (Dengue virus type 2 (strain 16681-PDK53))", "valueType": "inhibition", "reportedResult": -2.12}
{"compound": "CC(C)N(C(=O)[C@H]1C[C@H](CC(=O)NCc2ccco2)C(=O)N2CCc3c([nH]c4cc(CCC(=O)N(C)C)ccc34)[C@]12C)C(C)C", "targetUnderTest": "Genome polyprotein (Dengue virus type 2 (strain 16681-PDK53))", "valueType": "inhibition", "reportedResult": 1.51}

Below is a list of compounds. For each, state its recorded inhibition.
1. CCCCCc1cc(OC)cc2c1C(=O)OC(C)(C)O2
2. c1ccc(C2CC(c3ccccc3)C(c3ccccc3)N2)cc1 (centres undefined)
3. Cc1cccc(C2=NN(c3ccccc3)[C@@H](C(=O)N3CCOC3=O)[C@@H]2C)c1
4. Cc1ccc(S(=O)(=O)N2[C@@H](c3ccc(C(C)(C)C)cc3)C(C(=O)O)=CC[C@H]2c2ccc(C(C)C)cc2)cc1
5. CCOC(=O)c1c(C)nc2c(c1-c1cc(OC)ccc1OC)C(=O)c1ccccc1-2
6. COc1cccc2c1-c1c(O)cccc1C2=O
7. CCc1ccc(N2C(=O)c3sc4nnc(C)c(=O)n4c3C2=O)cc1
8. Cc1n[nH]c(C)c1CCCCOc1ccccc1[N+](=O)[O-]

Solution:
[-1.23, -2.44, 4.88, 0.6, 3.65, 6.38, 5.46, -1.21]
